test system: OVCAR-8; assay: Growth inhibition of human OVCAR-8 cells assessed as cell growth at 10 uM incubated for 48 hrs by sulforhodamine B assay relative to control; format: functional; details: read-out: Activity
quantity name: growth at 10 µM (%)
Quick reminder: number only, in %, skip the unit.

Problem: Field request: growth at 10 µM | item: `COc1ccc(S(=O)(=O)n2ccc(-c3ccc4c(c3)CCC(C)(C)O4)n2)cc1`
Result: 83.8

Problem: Field request: growth at 10 µM | item: `Nc1c(C(=O)Nc2ccccc2)sc2nc3c(cc12)CN(Cc1ccccc1)CC3`
Result: 59

Problem: Field request: growth at 10 µM | item: `COc1ccc(S(=O)(=O)n2ccc(-c3ccc(OC(C)C)cc3)n2)cc1`
Result: 94.6

Problem: Field request: growth at 10 µM | item: `CC(=O)c1ccc2c(N)c(C(=O)Nc3ccccc3)sc2n1`
Result: 100

Problem: Field request: growth at 10 µM | item: `O=S(=O)(c1ccccc1)n1ccc(-c2ccc3c(c2)CCO3)n1`
Result: 84

Problem: Field request: growth at 10 µM | item: `COc1ccc(-c2ccn(S(=O)(=O)c3ccc(C)cc3)n2)cc1`
Result: 83.4

Problem: Field request: growth at 10 µM | item: `CCOc1ccc(-c2cc(N)n(S(=O)(=O)c3ccc(OC)cc3)n2)cc1`
Result: 96.6

Problem: Field request: growth at 10 µM | item: `CC1(C)CCc2cc(-c3ccn(S(=O)(=O)c4ccc(Cl)cc4Cl)n3)ccc2O1`
Result: 97

Problem: Field request: growth at 10 µM | item: `CC1(C)CCc2cc(-c3ccn(S(=O)(=O)c4ccc(C(C)(C)C)cc4)n3)ccc2O1`
Result: 84.5

Problem: Field request: growth at 10 µM | item: `COc1cccc(NC(=O)c2sc3nc4c(cc3c2N)CN(Cc2ccccc2)CC4)c1`
Result: 28

Problem: Field request: growth at 10 µM | item: `CCc1cccc(C)c1NC(=O)c1sc2nc3c(cc2c1N)C(=O)CCC3`
Result: 20

Problem: Field request: growth at 10 µM | item: `Cc1ccc(NC(=O)c2sc3nc4c(cc3c2N)C(=O)CCC4)cc1C`
Result: 31

Problem: Field request: growth at 10 µM | item: `Cc1cc(C)c(NC(=O)c2sc3nc4c(cc3c2N)CN(Cc2ccccc2)CC4)c(C)c1`
Result: 30

Problem: Field request: growth at 10 µM | item: `CC(C)N1CCc2nc3sc(C(=O)Nc4ccccc4)c(N)c3cc2C1`
Result: 95.9

Problem: Field request: growth at 10 µM | item: `Cc1cccc(NC(=O)c2sc3nc4c(cc3c2N)CN(Cc2ccccc2)CC4)c1`
Result: 98.2

Problem: Field request: growth at 10 µM | item: `COc1ccc(S(=O)(=O)n2ccc(-c3ccc4c(c3)CCC(C)(C)O4)n2)cc1OC`
Result: 74.6

Problem: Field request: growth at 10 µM | item: `CC1(C)CCc2cc(-c3ccn(S(=O)(=O)c4ccc(C(F)(F)F)cc4)n3)ccc2O1`
Result: 90.9

Problem: Field request: growth at 10 µM | item: `Cc1cccc(NC(=O)c2sc3nc4c(cc3c2N)C(=O)CCC4)c1`
Result: 37

----------
I'd be grateful if you could share measured growth at 0.01 µM for these entries.
test system: KM12; assay: Growth inhibition of human KM12 cells assessed as cell growth at 0.01 uM incubated for 48 hrs by sulforhodamine B assay relative to control; format: functional; details: read-out: Activity
Quick reminder: number only, in %, skip the unit.

Problem: Record `CN1CCc2nc3sc(C(N)=O)c(N)c3c(-c3cccs3)c2C1` : what is its growth at 0.01 µM with KM12?
Result: 103

Problem: Record `Nc1c(C(=O)Nc2ccccc2)sc2nc3c(cc12)CN(Cc1ccccc1)CC3` : what is its growth at 0.01 µM with KM12?
Result: 100

Problem: Record `Cc1cccc(NC(=O)c2sc3nc4c(cc3c2N)C(=O)CCC4)c1` : what is its growth at 0.01 µM with KM12?
Result: 95

Problem: Record `Cc1cc(C)c(NC(=O)c2sc3nc4c(cc3c2N)CN(Cc2ccccc2)CC4)c(C)c1` : what is its growth at 0.01 µM with KM12?
Result: 98

Problem: Record `CCc1ccccc1NC(=O)c1sc2nc3c(cc2c1N)C(=O)CCC3` : what is its growth at 0.01 µM with KM12?
Result: 100

Problem: Record `Cc1ccc(NC(=O)c2sc3nc4c(cc3c2N)C(=O)CCC4)cc1C` : what is its growth at 0.01 µM with KM12?
Result: 98

Problem: Record `CCc1cccc(C)c1NC(=O)c1sc2nc3c(cc2c1N)C(=O)CCC3` : what is its growth at 0.01 µM with KM12?
Result: 96

Problem: Record `COc1cccc(NC(=O)c2sc3nc4c(cc3c2N)CN(Cc2ccccc2)CC4)c1` : what is its growth at 0.01 µM with KM12?
Result: 100
